// reported MIC per item
Tested on: Mycobacterium tuberculosis H37Rv
Test: Inhibition of MmA1 in Mycobacterium tuberculosis H37Rv assessed as reduction in bacterial growth incubated for 5 days by MABA assay
Conditions: time 5.0 day
Put down the number, then write its unit next to it.

Use the examples below as a reference point.
NC(=O)c1cnccn1 | 3.12 µg/mL
O=C(Cn1ccnc1)Nc1cccc(C(=O)O)c1 | 12.5 µg/mL
CN[C@@H]1[C@H](O[C@H]2[C@H](O[C@H]3[C@H](O)[C@@H](O)[C@H](N=C(N)N)[C@@H](O)[C@@H]3N=C(N)N)O[C@@H](C)[C@]2(O)C=O)O[C@@H](CO)[C@H](O)[C@H]1O | 6.25 µg/mL
O=C(CN1CCOCC1)Nc1cccc(C(=O)O)c1 | 25 µg/mL
O=C(CN1CCN(c2ccccc2)CC1)Nc1cccc(C(=O)O)c1 | 1.6 µg/mL

Supply MIC measured with Mycobacterium tuberculosis H37Rv for O=C(CNc1ccc(F)cc1F)Nc1cccc(C(=O)O)c1 . 1.6 µg/mL

State recorded MIC with Mycobacterium tuberculosis H37Rv, entry O=C(CNc1ccc(Br)cc1)Nc1cccc(C(=O)O)c1 , no comment. 3.12 µg/mL

Print Mycobacterium tuberculosis H37Rv MIC for CCN(CC)CC(=O)Nc1cccc(C(=O)O)c1 . 3.12 µg/mL

System Mycobacterium tuberculosis H37Rv. Read-out MIC. Item O=C(CN1CCCCC1)Nc1cccc(C(=O)O)c1 . Report value. 1.6 µg/mL

Report value only: MIC, Mycobacterium tuberculosis H37Rv, O=C(O)c1cn(C2CC2)c2cc(N3CCNCC3)c(F)cc2c1=O 3.12 µg/mL

Write MIC of O=C(CN1CCOCC1)Nc1cccc(C(=O)Nc2ccc3[nH]cnc(=O)c3c2)c1 ; system used: Mycobacterium tuberculosis H37Rv 100 µg/mL

* * *

Below: a set of entries, each annotated with reported MIC.
Test system: Mycobacterium tuberculosis H37Rv
Experiment: Inhibition of MmA1 in Mycobacterium tuberculosis H37Rv assessed as reduction in bacterial growth incubated for 5 days by MABA assay
Conditions: time 5.0 day
Write the value in µg/mL as a bare number.

Indicate the recorded MIC value for this compound: CN1CCN(CC(=O)Nc2cccc(C(=O)O)c2)CC1 1.6

For O=C(CNc1ccccc1)Nc1cccc(C(=O)O)c1 , write its MIC. 6.25

Return the recorded MIC value; entry: O=C(CN1CCN(Cc2ccccc2)CC1)Nc1cccc(C(=O)O)c1 3.12

Check the records and state MIC for O=C(CNc1ccccn1)Nc1cccc(C(=O)O)c1 12.5

Report measured MIC; entry is Cc1ccc(NCC(=O)Nc2cccc(C(=O)O)c2)cc1 6.25

Look up and state reported MIC for O=C(CNc1ccc(Cl)cc1)Nc1cccc(C(=O)O)c1 6.25

Provide only the value of recorded MIC for O=C(CN1CCCC1)Nc1cccc(C(=O)O)c1 1.6
